Test system: PC-3
Method Description: NCI tumour cell line growth inhibition, 48 h
Calls of active or inactive are those of the source. No stated cut-off is given here; in the data, active = GI50 up to about 1.1 µM and inactive = higher.
Value Kind: GI50

> print(dat)
                                   compound  value.kind              result
1  SC1=Nc2ccccc2-c2nc(-c3cccc(Cl)c3)cc(-c3ccccc3)c2C1        GI50  7.57 µM (inactive)
2  CC1=NC2(CCCCC2)N(Cl)C(=O)C1SC#N (stereo not drawn)        GI50  15.8 µM (inactive)
3  COc1ccc(/N=N/c2ccc3oc(=O)c(C(=O)Nc4ccc(Cl)cc4)cc3c2)cc1        GI50  2.56 µM (inactive)

----------
Test system: RPMI-8226
Method Description: NCI tumour cell line growth inhibition, 48 h
Structures can show the parent of a compound that is named as a salt. Calls of active or inactive are those of the source. No stated cut-off is given here; in the data, active = GI50 up to about 1.1 µM and inactive = higher.
Classes used: active, inactive

Compound	Class Name
COC(=O)C1(SC)C2CCC3C2CCC31 (stereo not given)	inactive
COc1cccc2ccc(C(=O)c3ccccc3)nc12	inactive
C=C1C(=O)C=C2C=C3C(=O)C(C)(C)C[C@]3(O)C12C (stereo not given in full)	inactive
CCOC(=O)C(NC(=O)CC(C)C)(Nc1ccc(C(F)(F)F)cc1)C(F)(F)F (stereo not given)	inactive
NCCS [CYSTEAMINE HYDROCHLORIDE]	inactive
C=CCC(OCCOCC)c1cc(OCCOCC)ccc1OC (stereo not given)	inactive
COc1cc2c(c(O)c1O)C(=O)C1CCC(=O)N1C2c1cccc2ccccc12 (stereo not given)	inactive
CCOC(=O)C1CCCCN1C(=O)Cc1c[nH]c2ccccc12 (stereo not given)	inactive
O=C(O)[C@@H]1NC[C@H]2C(Br)=NO[C@H]21	inactive
COc1cccc(C2c3cc4c(cc3OC(N3CCOCC3)C2C)OCO4)c1O (stereo not given)	inactive
CC1CC[C@@]2(OC1)OC1C[C@H]3[C@@H]4C/C(=N\N(C)C)[C@@]5(O)CC(O)CC[C@]5(C)[C@H]4CC[C@]3(C)C1[C@@H]2C (stereo not given in full)	inactive
CN(C)c1ccc(/C=C2\N=C(NN)NC2=O)cc1	inactive
O=C1C=C(O)c2nc(O)ccc2C1=O	inactive
N#Cc1c(O)n(-c2ccccc2)c(=O)c2c(N)n[nH]c12	inactive
CN(C)/N=C(/CC(O)(C(F)(F)F)C(F)(F)F)c1ccc([N+](=O)[O-])cc1	inactive
CCN(CC)CCNc1ccc2ncn3c4c(OC)ccc(O)c4c(=O)c1c23	inactive
CC(=O)OC[C@@H](OC(C)=O)[C@H](OC(C)=O)[C@@H]1OC(C)(C)O[C@@H]1C1SCCCS1	inactive
C[N+](C)(C)CC1CCCCCCCCCCC1=O (stereo not given)	inactive
O=c1[nH]c(=O)n(C2CC(O)C(CO)O2)cc1C#Cc1cc(F)cc(F)c1 (stereo not given)	inactive
COc1ccc(C(=O)Cn2c(C(=O)/C=C/c3ccco3)nc3ccccc32)cc1	inactive
COC1=CC(=O)C2C(C1=O)C(c1ccccc1)[C@H]2C (stereo not given in full)	inactive
CC1=C(CO)C(=O)O[C@@H]([C@@H](C)[C@H]2CC[C@H]3[C@@H]4C[C@H]5O[C@]56[C@@H](O)C=CC(=O)[C@]6(C)[C@H]4CC[C@]23C)C1	active
CO[C@H]1CC[C@]2(C)C3=CC[C@@]4(C)C(CC[C@@H]4C(C)CC[C@@H](C)C(C)C)C(=CCC2C1)O3 (stereo not given in full)	inactive
COc1ccc(C(=O)c2sc(Nc3ccc(Cl)cc3)nc2N)cc1	inactive
[O-][S+]1Cc2ccccc2CSS1 (stereo not given)	inactive
COc1ccc(CC#C/C=C/C(=O)NCC(C)C)cc1	inactive
CC1CN(CCO)CCN1c1ccccc1 (stereo not given)	inactive
Cc1nc2c(O)cc3c4c([nH]c3c2nc1C)C(=O)CCC4	inactive
O=C(c1ccccc1)[C@H]1Nc2ccc(Cl)cc2[C@H]2c3ccccc3O[C@H]21	inactive
O=S(=O)(O)c1ccc2c(/N=N\c3ccc(F)cc3)c(O)c(S(=O)(=O)O)cc2c1	inactive
